Experiment: In-vivo pharmacokinetic study in beagle dogs
Design: species or system male beagle dogs
Settings: male, dog, plasma, po, intragastric administration, 0.6 mg/kg, read-out: AUC0-48h
Method: 1.1 Instrument: high-performance liquid chromatograph: SHIMADZU LC-30AD; mass spectrum: AB SCIEX mass spectrometer Triple Quad 5500; all measured data were calculated and processed using Microsoft Excel, and relevant pharmacokinetic parameters were calculated using WinNonlin software. […] All measured data were collected and processed by the relevant software, and pharmacokinetic parameters were calculated using Winnonlin software. […]
metric name: AUC(0-t) (ng·h/mL)
// units = ng·h/mL; emit number, no label

Problem: I have this molecule here, "COc1cc2c(cc1S(=O)(=O)Nc1noc3cc(Cn4cccn4)nc(OC)c13)CCCC2" , and I need its recorded AUC(0-t).
Solution: 66500
